src = patent US5753715A

Target: Kinase A and SpoOF (Bacillus subtilis)
Sequence (P16497 1-606): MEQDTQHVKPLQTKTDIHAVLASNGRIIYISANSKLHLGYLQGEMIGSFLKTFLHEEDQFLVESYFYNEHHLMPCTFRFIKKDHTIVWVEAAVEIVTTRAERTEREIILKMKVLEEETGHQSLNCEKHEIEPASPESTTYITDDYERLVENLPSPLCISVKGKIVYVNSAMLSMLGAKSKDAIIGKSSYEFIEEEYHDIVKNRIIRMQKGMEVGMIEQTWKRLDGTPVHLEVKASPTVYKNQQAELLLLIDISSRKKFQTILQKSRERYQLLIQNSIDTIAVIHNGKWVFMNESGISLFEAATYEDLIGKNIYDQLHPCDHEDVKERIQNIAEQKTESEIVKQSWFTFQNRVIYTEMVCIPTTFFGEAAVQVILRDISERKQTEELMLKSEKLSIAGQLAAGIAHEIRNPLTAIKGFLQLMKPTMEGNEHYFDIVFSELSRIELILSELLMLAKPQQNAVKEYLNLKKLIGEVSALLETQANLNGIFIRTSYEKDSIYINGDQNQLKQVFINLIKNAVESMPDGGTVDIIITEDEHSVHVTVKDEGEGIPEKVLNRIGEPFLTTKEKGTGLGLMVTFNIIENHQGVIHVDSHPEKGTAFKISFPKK
Assay: Autophosphorylation of Kinase A and Transphosphorylation of SPoOF Assay
Assay type: biochemical
Settings: inhibition of Kinase A autophosphorylation / SpoOF transphosphorylation, [32P]ATP, gel, phosphoimager
Readout Name: IC min (mM)
State the answer as a number, implicitly in mM.

Fill in the blank: the reported IC min of NCCCc1ccc(OCCC2(Cc3ccccc3)C=CCCC2)cc1 (centres unmarked) [Compound 18] is ____. 125

Fill in the blank: the reported IC min of N=C(N)NCCCc1ccc(OCCC2(Cc3ccccc3)C=CCCC2)cc1 (centres unmarked) [Compound 38] is ____. 125

Fill in the blank: the reported IC min of CNCCc1cccc(OCCC2(Cc3ccccc3)C=CCCC2)c1 (centres unmarked) [Compound 37] is ____. 62.5

Fill in the blank: the reported IC min of NCCc1ccc(OCCC2(Cc3cccc(Cl)c3)C=CCCC2)cc1 (centres unmarked) [Compound 39] is ____. 31.25

Fill in the blank: the reported IC min of NCc1ccc(OCCC2(Cc3cccc(Cl)c3)C=CCCC2)cc1 (centres unmarked) [Compound 5] is ____. 15.6

Fill in the blank: the reported IC min of CCCCC1(CCOc2ccc(CCCNC)cc2)C=CCCC1 (centres unmarked) [Compound 32] is ____. 125

Fill in the blank: the reported IC min of CNCCc1ccc(OCCCC2(Cc3ccccc3)C=CCCC2)cc1 (centres unmarked) [Compound 30] is ____. 125

Fill in the blank: the reported IC min of CNCCCc1ccc(OCCC2(Cc3ccccc3)C=CCCC2)cc1 (centres unmarked) [Compound 19] is ____. 62.5

Fill in the blank: the reported IC min of NCCc1ccc(OCCC2(Cc3ccc([N+](=O)[O-])cc3)CCCCC2)cc1 [Compound 16] is ____. 15.6

Fill in the blank: the reported IC min of CNCCCc1ccc(OCCC2(CCO)C=CCCC2)cc1 (centres unmarked) [Compound 15] is ____. 125

Fill in the blank: the reported IC min of NCCc1ccc(OCCC2(Cc3ccc(Cl)cc3)C=CCCC2)cc1 (centres unmarked) [Compound 33] is ____. 125

Fill in the blank: the reported IC min of COc1ccc(CC2(CCOc3ccc(CCCN)cc3)C=CCCC2)cc1 (centres unmarked) [Compound 43] is ____. 125

Fill in the blank: the reported IC min of C1=CC(CCOc2ccc(CCCNCCN3CCOCC3)cc2)(Cc2ccccc2)CCC1 (centres unmarked) [Compound 21] is ____. 500

Fill in the blank: the reported IC min of CNCCCc1ccc(OCCC2(Cc3ccc(OC)cc3)C=CCCC2)cc1 (centres unmarked) [Compound 42] is ____. 62.5
